TARGET OR TEST SYSTEM: mutated Abl (T315I) (human) (Homo sapiens, UniProt P00519, T315I)
EXPERIMENT SUMMARY: Mutated Abl (T315I) (human) kinase assay, 33P-ATP filter binding
Assay type: biochemical
SETUP CONDITIONS: 3 nM
inhibition at 0.003 µM listing for selected compounds.
Quick reminder: number only, in %, skip the unit.

These solved cases illustrate the format of a correct answer.
Cc1ccc(C(=O)NNC(=O)c2c(C)cccc2Cl)cc1C#Cc1ccc(NC(=O)CCN2CCN(C)CC2)nc1 ... 59
Cc1ccc(C(=O)NNC(=O)c2c(C)cccc2Cl)cc1C#Cc1ccc(NC(=O)C2CC2)nc1 ... 87
Cc1ccc(C(=O)NNC(=O)c2c(C)cccc2Cl)cc1C#Cc1ccc(NC(=O)CN2CCC(N(C)C)C2)nc1 (stereo not drawn) ... 66
CC(=O)Nc1ccc(C#Cc2cc(C(=O)NNC(=O)c3c(C)cccc3Cl)ccc2C)cn1 ... 68
Cc1ccc(C(=O)NNC(=O)c2c(C)cccc2Cl)cc1C#Cc1ccc(NC(=O)CN2CCC(N(C)C)CC2)nc1 ... 70

Next, consider the following compound.
What value of inhibition at 0.003 µM has been reported for the following compound? `Cc1ccc(C(=O)NNC(=O)c2c(C)cccc2Cl)cc1C#Cc1ccc(NC(=O)CN(C)C)nc1`
50
